# target-system: Glycogen synthase kinase-3 beta (Homo sapiens)
# Sequence (P49841 whole entry): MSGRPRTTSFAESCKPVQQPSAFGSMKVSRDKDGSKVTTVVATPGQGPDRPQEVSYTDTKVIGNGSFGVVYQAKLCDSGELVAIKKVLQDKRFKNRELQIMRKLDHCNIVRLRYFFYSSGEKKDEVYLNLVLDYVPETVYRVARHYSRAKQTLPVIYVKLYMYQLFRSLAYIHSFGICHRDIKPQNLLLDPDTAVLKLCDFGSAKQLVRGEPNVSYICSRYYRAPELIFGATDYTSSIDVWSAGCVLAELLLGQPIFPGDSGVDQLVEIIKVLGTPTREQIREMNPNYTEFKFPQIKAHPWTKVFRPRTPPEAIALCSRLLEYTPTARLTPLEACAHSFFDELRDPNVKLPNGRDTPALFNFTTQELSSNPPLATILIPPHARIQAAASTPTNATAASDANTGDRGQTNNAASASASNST
# assay-procedure: Inhibition of GSK3beta (unknown origin) measured after 40 mins by ADP-Glo assay
result-type: pIC50
Worth noting: pIC50 values are minus log10 of concentrations stated in mol/L.

Please give the measured pIC50 for this compound: O=S(=O)(Nc1ccc(-c2nc(-c3ccnc(Nc4ccc(OC(F)(F)F)cc4)c3)no2)cc1)c1ccc(OC(F)(F)F)cc1 5.06

Please give the measured pIC50 for this compound: CC(C)(C)c1ccc(S(=O)(=O)Nc2ccc(-c3nc(-c4ccnc(Nc5cccc(Cl)c5)c4)no3)cc2)cc1 6.72

Please give the measured pIC50 for this compound: CC(=O)Nc1cccc(S(=O)(=O)Nc2ccc(-c3nc(-c4ccnc(Nc5ccc(OC(F)(F)F)cc5)c4)no3)cc2)c1 5.66

Please give the measured pIC50 for this compound: CC(C)(C)c1ccc(S(=O)(=O)Nc2ccc(-c3nc(-c4ccnc(Nc5ccc(F)c(F)c5)c4)no3)cc2)cc1 5.88

Please give the measured pIC50 for this compound: COC(=O)c1ccc(S(=O)(=O)Nc2ccc(-c3nc(-c4ccnc(Nc5ccc(OC(F)(F)F)cc5)c4)no3)cc2)s1 5.92

Please give the measured pIC50 for this compound: CC(=O)c1ccc(S(=O)(=O)Nc2ccc(-c3nc(-c4ccnc(Nc5ccc(OC(F)(F)F)cc5)c4)no3)cc2)cc1 5.99

Please give the measured pIC50 for this compound: CC(C)(C)c1ccc(S(=O)(=O)Nc2ccc(-c3nc(-c4ccnc(Nc5ccc(C(F)(F)F)cc5)c4)no3)cc2)cc1 5.83

Please give the measured pIC50 for this compound: Cc1ccccc1Nc1cc(-c2noc(-c3ccc(NS(=O)(=O)c4ccc(C(C)(C)C)cc4)cc3)n2)ccn1 5.64

Please give the measured pIC50 for this compound: O=S(=O)(Nc1ccc(-c2nc(-c3ccnc(Nc4ccc(OC(F)(F)F)cc4)c3)no2)cc1)c1ccc(Br)cc1 5.51

Please give the measured pIC50 for this compound: CC(C)(C)c1ccc(Nc2cc(-c3noc(-c4ccc(NS(=O)(=O)c5ccc(C(C)(C)C)cc5)cc4)n3)ccn2)cc1 6.25

Please give the measured pIC50 for this compound: CC(C)(C)c1ccc(S(=O)(=O)Nc2ccc(-c3nc(-c4ccnc(Nc5ccc(Cl)cc5F)c4)no3)cc2)cc1 5.55

Please give the measured pIC50 for this compound: CCc1ccc(Nc2cc(-c3noc(-c4ccc(NS(=O)(=O)c5ccc(C(C)(C)C)cc5)cc4)n3)ccn2)cc1 5.49
